- System: C. glabrata
- Protocol: Checkerboard FIC assay in combination with fluconazole (MIC alone and in combination, FICI)
- Format: cell-based, Candida glabrata
- Condition Label: Nakaseomyces glabratus; MIC of the example compound alone against C. glabrata in the checkerboard assay, approximately 48 hr; read-out: Methylgene MIC
Attribute Measured: MIC (µg/mL)

Observe how each entry below is paired with its result.
Input Smiles | Measured Value
CC(=O)Nc1ccc(CCCCc2ccc(CC(=O)NO)cc2)cc1 | 16
CC(=O)Nc1cccc(CCCCc2ccc(CC(=O)NO)cc2)c1 | 16
O=C(Cc1ccc(CCC/C(=N\O)c2ccccc2)cc1)NO | 16

(I) COCCOCCOCCOCCOCCOc1ccc(CCCCc2ccc(CC(=O)NO)cc2)cc1
(II) CN(C)CCSCC(=O)Nc1ccc(CCCCc2ccc(CC(=O)NO)cc2)cc1
(III) Nc1ccc(CCCCc2ccc(CC(=O)NO)cc2)cc1
List items by MIC in falling order. Output spec: labels arranged per the requested ranking.
II, III, I
(II: 16 µg/mL, III: 4 µg/mL, I: 2 µg/mL)

----------
- Test system: C. glabrata
- Protocol: Checkerboard FIC assay in combination with fluconazole (MIC alone and in combination, FICI)
- Format: cell-based, Candida glabrata
- Condition Label: concentration in combination as multiple of the compound's MIC alone; fluconazole MIC 4 ug/mL
Attribute Measured: Multiple of compound MIC to synergize fluconazole MIC to 4 ug/mL

As a guide, the following entries are already answered.
Compound | System Under Test | Measured Value
O=C(Cc1ccc(CCCC(F)c2ccccc2)cc1)NO (stereo not drawn) [Example 26] | C. glabrata | (⅛x)
Nc1ccc(CCCCc2ccc(CC(=O)NO)cc2)cc1 [Example 31] | C. glabrata | (¼x)
COc1ccc(CCCCc2ccc(CC(=O)NO)cc2)cc1 [Example 9] | C. glabrata | (¼x)
O=C(Cc1ccc(CCCC(=O)c2ccccc2)cc1)NO [Example 28] | C. glabrata | (⅛x)
CC(=O)Nc1cccc(CCCCc2ccc(CC(=O)NO)cc2)c1 [Example 42] | C. glabrata | (¼x)

Find the recorded Multiple of compound MIC to synergize fluconazole MIC to 4 ug/mL belonging to CC(CCCc1ccc(CC(=O)NO)cc1)c1ccccc1 (stereo not drawn) [Example 30] and report it.
(¼x)

Given the entry O=C(Cc1ccc(CCCCC2CCCCC2)cc1)NO [Example 8] , report its measured Multiple of compound MIC to synergize fluconazole MIC to 4 ug/mL.
(½x)

Consider the compound shown here: COc1ccc(CCCCc2ccc(CC(=O)NO)cc2)cc1OC [Example 13] What is its recorded Multiple of compound MIC to synergize fluconazole MIC to 4 ug/mL?
(¼x)

// query Multiple of compound MIC to synergize fluconazole MIC to 4 ug/mL value for entry COCCOCCOCCOCCOCCOc1ccc(CCCCc2ccc(CC(=O)NO)cc2)cc1 [Example 10]
(¼x)

Please report the recorded Multiple of compound MIC to synergize fluconazole MIC to 4 ug/mL for O=C(Cc1ccc(CCCCc2ccc(O)cc2)cc1)NO [Example 15] .
(¼x)

----------
- System: C. glabrata
- Protocol: Checkerboard FIC assay in combination with fluconazole (MIC alone and in combination, FICI)
- Format: cell-based, Candida glabrata
- Condition Label: Nakaseomyces glabratus; MIC of the example compound alone against C. glabrata in the checkerboard assay, approximately 48 hr; read-out: Methylgene MIC
Attribute Measured: MIC (µg/mL)

Compound | System Under Test | Units | Measured Value
O=C(Cc1ccc(CCCCc2ccc(C(=O)N3CCN(CCn4ccnc4)CC3)cc2)cc1)NO | C. glabrata | µg/mL | 16
CC(CCCc1ccc(CC(=O)NO)cc1)c1ccccc1 (stereo not drawn) | C. glabrata | µg/mL | 0.5

(P) O=C(Cc1ccc(CCCCc2ccc(C(=O)NCCCn3ccnc3)cc2)cc1)NO
(Q) O=C(Cc1ccc(CCCCC2CCCCC2)cc1)NO
Pick the one with the larger MIC: P vs Q Pick one; state its label.
P
